measured_on: Neu5Ac(a2-3)Gal
experiment: glycan array binding signal (z-score within array); higher = stronger binding
experimental_context: glycan notation: IUPAC condensed, linker removed
This excerpt belongs to a sample that is enriched for the strongest signals.
Classify as follows. Reported glycan array binding signal (z-score) greater than or equal to -0.3: Fulfilled. Reported glycan array binding signal (z-score) below: Not fulfilled.

binder	assigned_class
Adiponectin (Rattus norvegicus), Q8K3R4 (protein) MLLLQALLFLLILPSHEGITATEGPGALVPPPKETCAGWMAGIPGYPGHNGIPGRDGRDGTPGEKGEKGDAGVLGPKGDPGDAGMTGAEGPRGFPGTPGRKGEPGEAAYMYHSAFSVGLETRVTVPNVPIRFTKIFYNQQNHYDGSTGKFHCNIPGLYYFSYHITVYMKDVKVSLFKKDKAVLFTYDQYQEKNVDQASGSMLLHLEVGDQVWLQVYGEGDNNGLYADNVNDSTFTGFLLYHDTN	Fulfilled
HFR-3 (Triticum aestivum) (protein) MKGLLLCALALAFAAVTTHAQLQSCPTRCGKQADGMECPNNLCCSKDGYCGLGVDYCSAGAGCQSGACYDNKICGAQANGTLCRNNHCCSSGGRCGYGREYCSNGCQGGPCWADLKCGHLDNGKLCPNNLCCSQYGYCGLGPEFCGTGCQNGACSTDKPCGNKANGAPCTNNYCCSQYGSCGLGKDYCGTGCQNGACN	Not fulfilled
CPA (Cicer arietinum) (protein) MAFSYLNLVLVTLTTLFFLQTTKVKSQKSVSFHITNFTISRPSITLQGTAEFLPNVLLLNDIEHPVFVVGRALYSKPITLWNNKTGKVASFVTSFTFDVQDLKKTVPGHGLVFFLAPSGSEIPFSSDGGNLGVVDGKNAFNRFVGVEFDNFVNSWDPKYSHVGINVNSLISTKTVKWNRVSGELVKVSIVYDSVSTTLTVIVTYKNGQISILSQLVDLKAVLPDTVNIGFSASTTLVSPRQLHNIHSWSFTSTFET	Not fulfilled
LSectin (Mus musculus), Q8BNX1 (protein) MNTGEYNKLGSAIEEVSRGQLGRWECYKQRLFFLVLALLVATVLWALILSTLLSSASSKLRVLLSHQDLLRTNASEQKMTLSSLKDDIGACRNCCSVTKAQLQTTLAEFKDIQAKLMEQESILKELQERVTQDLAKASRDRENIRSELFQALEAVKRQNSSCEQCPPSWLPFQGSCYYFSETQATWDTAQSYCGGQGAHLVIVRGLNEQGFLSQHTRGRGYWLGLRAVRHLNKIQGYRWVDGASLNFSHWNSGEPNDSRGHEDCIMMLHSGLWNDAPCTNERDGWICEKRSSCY	Fulfilled
MFG-E8 (Homo sapiens), Q08431 (protein) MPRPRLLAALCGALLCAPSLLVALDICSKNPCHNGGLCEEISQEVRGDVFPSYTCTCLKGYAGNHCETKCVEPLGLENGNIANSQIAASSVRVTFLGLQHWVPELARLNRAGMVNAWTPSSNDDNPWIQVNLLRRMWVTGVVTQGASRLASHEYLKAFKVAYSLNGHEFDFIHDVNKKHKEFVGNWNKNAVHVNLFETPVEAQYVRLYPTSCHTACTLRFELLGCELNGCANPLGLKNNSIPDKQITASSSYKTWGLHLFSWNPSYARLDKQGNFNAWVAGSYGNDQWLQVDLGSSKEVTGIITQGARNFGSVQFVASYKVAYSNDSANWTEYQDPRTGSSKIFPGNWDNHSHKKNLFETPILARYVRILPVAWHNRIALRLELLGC	Fulfilled
Clec12b (Mus musculus), Q149M0 (protein) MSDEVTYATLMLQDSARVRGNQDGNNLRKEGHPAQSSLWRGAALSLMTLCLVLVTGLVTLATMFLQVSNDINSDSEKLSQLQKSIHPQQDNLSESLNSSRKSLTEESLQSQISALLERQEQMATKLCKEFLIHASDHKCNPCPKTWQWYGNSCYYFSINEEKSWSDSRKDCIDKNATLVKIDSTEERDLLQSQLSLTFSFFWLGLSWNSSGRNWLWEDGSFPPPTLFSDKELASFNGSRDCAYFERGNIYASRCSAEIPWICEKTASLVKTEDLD	Not fulfilled
Mindin (Homo sapiens), Q9BUD6 (protein) MENPSPAAALGKALCALLLATLGAAGQPLGGESICSARALAKYSITFTGKWSQTAFPKQYPLFRPPAQWSSLLGAAHSSDYSMWRKNQYVSNGLRDFAERGEAWALMKEIEAAGEALQSVHEVFSAPAVPSGTGQTSAELEVQRRHSLVSFVVRIVPSPDWFVGVDSLDLCDGDRWREQAALDLYPYDAGTDSGFTFSSPNFATIPQDTVTEITSSSPSHPANSFYYPRLKALPPIARVTLVRLRQSPRAFIPPAPVLPSRDNEIVDSASVPETPLDCEVSLWSSWGLCGGHCGRLGTKSRTRYVRVQPANNGSPCPELEEEAECVPDNCV	Not fulfilled
PNA (Arachis hypogaea), P02872 (protein) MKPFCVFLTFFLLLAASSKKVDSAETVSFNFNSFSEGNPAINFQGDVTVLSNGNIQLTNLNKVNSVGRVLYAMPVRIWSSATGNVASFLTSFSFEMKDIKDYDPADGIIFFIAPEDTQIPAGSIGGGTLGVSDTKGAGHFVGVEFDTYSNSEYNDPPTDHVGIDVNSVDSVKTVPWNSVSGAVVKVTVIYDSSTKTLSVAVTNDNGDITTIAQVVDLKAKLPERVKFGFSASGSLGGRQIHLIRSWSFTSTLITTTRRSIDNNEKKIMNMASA	Fulfilled
